SYSTEM: CSF-1R of cynomolgous monocytes (cynomolgous)
METHOD NOTES: cell-based or functional assay
ENDPOINT LABEL: % survival (cynomolgous monocytes, 5 µg/ml antibody)
Answer format: number, then unit.

Previously resolved entries follow.
Mab 2F11 (antibody, V domains shown, Murine monoclonal antibody from a hybridoma; also called muMab 2F11) VH: QVQLKESGPGLVAPSQSLSITCTVSGFSLTTYDISWIRQSPGKGLEWLGVIWTDGGTNYNSPFMSRLSIRKDNSKSQVFLKMNRLQTDDTAIYYCVRDQRLYFDVWGAGTTVTVSS VL: NIVMTQSPKSMSMSVGERVTLNCKASEDVNTYVSWYQQQPEQSPKLLIYGASNRYTGVPDRFTGGGSTTDFTLTISSVQAEDLADYFCGQSFSYPTFGTGTKLEIK	4%
Mab 1G10 (antibody, V domains shown, Murine monoclonal antibody from a hybridoma) VH: RVQLKESGPGLVAPSQSLSITCTVSGFSLTSYDISWIRQSPGKGLEWLGVIWSGGGTNYNSPFMSRLRISKDDSRSQVFLKVNRLQTDDTAIYYCVRDLRLYFDVWGAGTTVTVSS VL: KIVMTQSPKSMSVSVGERVSLSCKASEDVGTYVSWYQQKPEQSPKLLIYGSSNRYTGVPDRFTGSGSATDFTLTISSVQAEDLADYSCGQSFTYPTFGTGTKLEIK	2%

Moving on to the next binder.
So what does the record say about % survival (cynomolgous monocytes, 5 µg/ml antibody) for Mab 2H7 (antibody, V domains shown, Murine monoclonal antibody from a hybridoma) VH: QVQLKESGPGLVAPSKSLSITCTVSGSSLDSFDISWIRQPPGKGLEWLGVIWTGGGTNYNSGFMSRLRISKDNSKSQVFLKMSSLQSDDTAIYYCVRDPRLYFDVWGAGTTVTVSS VL: NIVMTQSPKSMSMSVGERVTLSCKASEDVVTYVSWYQQKPEQSPKLLIYGASNRYTGVPDRFTGSGSATDFTLTISSIQAEDLADYYCGQTFSYPTFGTGTKLEIK ?
8%
